Assay Target: HLA-Cw*0102 (Homo sapiens, UniProt P10321, A176E/A330V/A35S/A97T/C350S/D114A/D33F/L171W/L180R/L218V/M285V/M309V/M331V/P208H/Q277E/Q291P/R121W/R243W/R30K/S123C/S140Y/S297R/T329A/T363A/V272M/V319A)
Experiment Description: FACS-based MHC stabilisation assay (peptide binding, T2 cells)
pEC50: −log10 of the molar value. No end group written: not given here.
// values below are reported pEC50

Study these solved cases before continuing.
LITPKKIKP = < 3.00
EQFGNKTIV = < 3.00
VVPRRKAKI = < 3.00
LSPLTKGIL [L S P L T K G I L] = 5.42
ELIRTVRLI = < 3.00
KATSPIVPS [K A T S P I V P S] = < 3.00
PVPLQLPPL = 5.50
VDADDSHFV [V D A D D S H F V] = < 3.00
PQSQGVVES = < 3.00
NCPERIATL = 6.70

Challenge: Please look up its pEC50: IVIWGKTPK
Response given: < 3.00

Challenge: Please look up its pEC50: ADDSHFVSI [A D D S H F V S I]
Response given: < 3.00

Challenge: Please look up its pEC50: VIPMFSALS [VIPMFSALS]
Response given: 5.61

Challenge: Please look up its pEC50: DADDSHFVS [D A D D S H F V S]
Response given: < 3.00

Challenge: Please look up its pEC50: ILRRPTSPV [I L R R P T S P V]
Response given: 5.10

Challenge: Please look up its pEC50: NSTWSTEGS
Response given: < 3.00

Challenge: Please look up its pEC50: NYTSLIHSL
Response given: < 3.00

---

Assay Target: HLA-Cw*0102 (Homo sapiens, UniProt P10321, A176E/A330V/A35S/A97T/C350S/D114A/D33F/L171W/L180R/L218V/M285V/M309V/M331V/P208H/Q277E/Q291P/R121W/R243W/R30K/S123C/S140Y/S297R/T329A/T363A/V272M/V319A)
Experiment Description: FACS-based MHC stabilisation assay (peptide binding, T2 cells)
Study Conditions: pBL50(exp)
No end group written: not given here.
Response field label takes Yes when EC50 is strictly below 0.3 µM and No in all other cases.

Reference set (6 entries):
FAPYNKPSL [F A P Y N K P S L] = No
FMPIMKNEV = No
ECPQGITPV = Yes
LSPRSKESV [L S P R S K E S V] = No
IPEPAHAYA [I P E P A H A Y A] = No
NCAERIITL = No

Challenge: Consider the sequence MQPSRGKTL . Is its EC50 strictly less than 0.3 µM?
Response given: Yes

Challenge: Consider the sequence CMPDWLDRL . Is its EC50 strictly less than 0.3 µM?
Response given: No

Challenge: Consider the sequence TDPWFHRSL . Is its EC50 strictly less than 0.3 µM?
Response given: No

---

// values below are reported EC50
Assay Target: HLA-Cw*0102 (Homo sapiens, UniProt P10321, A176E/A330V/A35S/A97T/C350S/D114A/D33F/L171W/L180R/L218V/M285V/M309V/M331V/P208H/Q277E/Q291P/R121W/R243W/R30K/S123C/S140Y/S297R/T329A/T363A/V272M/V319A)
Experiment Description: FACS-based MHC stabilisation assay (peptide binding, T2 cells)
Study Conditions: pBL50(exp)
No end group written: not given here.
Response body: numeric value in µM, unit text excluded.

NEPQRIEPL = 0.0962
VRPMRQWPL = 3.8
LLTSPDVGL [L L T S P D V G L] = 11.7
ILSPRSESV [I L S P R S E S V] = 2.62
VAPWNSLSL [V A P W N S L S L] = 0.703

Challenge: Please look up its EC50: YMPTASCDL
Response given: 0.0129

Challenge: Please look up its EC50: NAPWAVTSL [N A P W A V T S L]
Response given: 0.142

Challenge: Please look up its EC50: NCPERAITL
Response given: 0.244

Challenge: Please look up its EC50: EAPMWDHWL
Response given: 0.49

Challenge: Please look up its EC50: EFPWVFIEL
Response given: 0.355

Challenge: Please look up its EC50: NCPERIIAL [NCPERIIAL]
Response given: 0.141

Challenge: Please look up its EC50: AAPAYSRAL [A A P A Y S R A L]
Response given: 1.77

Challenge: Please look up its EC50: WGPGIIWAL [WGPGIIWAL]
Response given: 3.63

Challenge: Please look up its EC50: LGPEKLQYL
Response given: 0.151

Challenge: Please look up its EC50: ITPTGTHPL [I T P T G T H P L]
Response given: 0.283
